Recorded values, source the supplement of paper PMC10065799.

# studyTarget: MERTK (UniProt Q12866)
# Sequence (Q12866 whole entry, looked up): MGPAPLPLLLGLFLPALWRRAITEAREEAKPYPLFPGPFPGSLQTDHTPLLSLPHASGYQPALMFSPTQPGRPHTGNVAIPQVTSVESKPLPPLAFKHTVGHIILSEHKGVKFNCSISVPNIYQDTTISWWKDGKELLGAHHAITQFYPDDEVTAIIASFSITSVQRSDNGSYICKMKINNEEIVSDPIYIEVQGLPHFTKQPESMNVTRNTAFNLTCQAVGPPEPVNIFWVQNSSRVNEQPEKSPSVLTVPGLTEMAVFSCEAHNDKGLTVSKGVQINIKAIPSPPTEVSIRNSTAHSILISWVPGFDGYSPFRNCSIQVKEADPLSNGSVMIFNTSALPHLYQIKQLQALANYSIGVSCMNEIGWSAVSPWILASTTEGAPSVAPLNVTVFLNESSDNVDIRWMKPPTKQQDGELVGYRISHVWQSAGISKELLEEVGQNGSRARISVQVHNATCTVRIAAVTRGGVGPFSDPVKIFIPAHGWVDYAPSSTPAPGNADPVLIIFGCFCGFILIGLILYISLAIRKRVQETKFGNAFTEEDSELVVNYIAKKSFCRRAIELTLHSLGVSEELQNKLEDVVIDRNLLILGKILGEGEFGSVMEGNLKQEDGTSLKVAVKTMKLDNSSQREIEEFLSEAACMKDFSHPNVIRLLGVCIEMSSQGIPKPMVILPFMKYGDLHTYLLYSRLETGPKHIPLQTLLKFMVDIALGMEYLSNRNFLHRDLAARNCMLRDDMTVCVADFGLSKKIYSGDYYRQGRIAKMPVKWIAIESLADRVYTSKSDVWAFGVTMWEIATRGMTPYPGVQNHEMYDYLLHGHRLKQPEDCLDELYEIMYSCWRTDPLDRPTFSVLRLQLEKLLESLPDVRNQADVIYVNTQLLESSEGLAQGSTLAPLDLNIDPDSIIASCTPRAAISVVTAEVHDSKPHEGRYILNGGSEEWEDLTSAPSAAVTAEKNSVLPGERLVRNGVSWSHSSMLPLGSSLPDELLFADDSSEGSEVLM
# measurementNotes: phosphorylation enrichment, bacterial display (enrichment ratio); higher = better substrate or ligand; peptides without Tyr show the background;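 also: 11-residue human phosphosite peptides and single-mutation variants displayed on the E. coli surface, counted by deep sequencing, each peptide's frequency after selection divided by its frequency in the unselected input library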;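 also: frequency after pTyr selection over input frequency; kinase dosed for 20-30% of maximal phosphorylation in three min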
Label yes (1) for high-side phosphorylation enrichment (at or above 0.6) and no (0) for low-side phosphorylation enrichment (below it).

Please review the entries below; each comes with its answer.
| seqText | classAssignment |
| --- | --- |
| AAGGRYYGLVG [HARS1_Y363_D364Y] | yes (1) |
| KLPFPYDDPFS [GPX2_Y127_YF] | no (0) |
| ATHSGYRLNDY [CLDN14_Y233] | no (0) |
| VSNFNYFFHRE [KCNA1_Y413_YF] | no (0) |
| IDGLEYLHSPG [STK11_Y166_Q170P] | no (0) |
| GRQGIYTKNER [GPR143_Y231_E233K] | no (0) |
| LGKGSYAKVKS [TSSK2_Y23] | yes (1) |
| IEKLPYIDKWF [CPS1_Y872_T871P] | no (0) |

Request: Dear colleague, could you confirm whether GMSQAYSSSQR [DES_Y5] has phosphorylation enrichment at or above 0.6?
Result: no (0)

Request: phosphorylation enrichment >= 0.6 for VKKKLDEEIDQ [CYP17A1_Y329_Y329D] ?
Result: no (0)

Request: Evaluate KTGNIYRTEFG [MRPL3_Y265_M261T_YF] : phosphorylation enrichment at minimum 0.6?
Result: no (0)

Request: Could you verify whether the entry DMLYQYLKQIE [RPAP3_Y569] shows phosphorylation enrichment of no less than 0.6?
Result: yes (1)

====

# studyTarget: Jak2 (UniProt O60674)
# Sequence (O60674 whole entry, looked up): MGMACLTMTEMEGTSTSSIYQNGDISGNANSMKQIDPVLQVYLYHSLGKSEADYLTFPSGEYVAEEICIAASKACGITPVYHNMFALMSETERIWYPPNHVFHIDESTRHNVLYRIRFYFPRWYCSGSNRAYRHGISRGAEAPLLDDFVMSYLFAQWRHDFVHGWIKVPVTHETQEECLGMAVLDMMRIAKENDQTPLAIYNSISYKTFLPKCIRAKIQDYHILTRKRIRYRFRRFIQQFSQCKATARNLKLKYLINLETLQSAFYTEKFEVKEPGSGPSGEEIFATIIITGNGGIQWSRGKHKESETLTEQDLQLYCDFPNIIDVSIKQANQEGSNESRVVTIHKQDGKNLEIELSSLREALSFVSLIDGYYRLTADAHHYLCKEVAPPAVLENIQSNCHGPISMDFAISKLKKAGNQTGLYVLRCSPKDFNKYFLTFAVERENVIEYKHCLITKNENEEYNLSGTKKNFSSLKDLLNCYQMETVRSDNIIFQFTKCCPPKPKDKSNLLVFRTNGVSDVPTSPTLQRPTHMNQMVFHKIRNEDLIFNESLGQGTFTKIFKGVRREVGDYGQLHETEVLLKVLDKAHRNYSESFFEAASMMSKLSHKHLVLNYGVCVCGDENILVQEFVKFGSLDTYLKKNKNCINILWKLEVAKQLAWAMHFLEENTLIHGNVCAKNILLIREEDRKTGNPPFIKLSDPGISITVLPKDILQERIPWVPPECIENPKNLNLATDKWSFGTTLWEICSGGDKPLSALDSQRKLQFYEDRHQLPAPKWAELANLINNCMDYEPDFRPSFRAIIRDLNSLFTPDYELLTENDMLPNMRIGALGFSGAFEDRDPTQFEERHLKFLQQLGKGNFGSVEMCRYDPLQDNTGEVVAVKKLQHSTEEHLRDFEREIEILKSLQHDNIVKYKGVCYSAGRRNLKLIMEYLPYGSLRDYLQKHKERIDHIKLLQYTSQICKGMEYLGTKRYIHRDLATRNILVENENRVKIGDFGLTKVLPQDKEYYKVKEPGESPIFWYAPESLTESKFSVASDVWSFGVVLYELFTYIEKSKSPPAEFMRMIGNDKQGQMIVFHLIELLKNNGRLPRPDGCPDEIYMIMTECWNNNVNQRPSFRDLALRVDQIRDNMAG
# measurementNotes: phosphorylation enrichment, bacterial display (enrichment ratio); higher = better substrate or ligand; peptides without Tyr show the background
# cutoff 0.7 applies to phosphorylation enrichment; >= gives Met, < gives Not met

| seqText | classAssignment |
| --- | --- |
| WEQELYSQLVF [WAS_Y102_YF] | Met |
| QRKPSYNQLAS [BRCA2_Y71] | Not met |
| AEDKPYAELWT [MPI_Y46_M51T] | Met |

Request: State whether the measured phosphorylation enrichment reaches 0.7, counting equality as reaching it, for KSSDVYVSFDC [SORL1_Y136_Y141C_YF]
Result: Met

Request: Would you say SLLTDCSPQLQ [OTC_Y345_Y345C] shows phosphorylation enrichment at minimum 0.7?
Result: Met

Request: Check if phosphorylation enrichment >= 0.7 (inclusive). Item: TCFDKYTGSTY [FN1_Y101_N104S]
Result: Met

Request: Test whether the sequence VIGRMYDFHVL [RPF2_Y109_YF] records phosphorylation enrichment of 0.7 or higher.
Result: Met

Request: Exam item: decide whether the reported phosphorylation enrichment for QFRFIYMAVQH [PTPN11_Y515_YF] is at least 0.7.
Result: Met

Request: Decide: is the reported value of phosphorylation enrichment for EKLQQYLAPGM [EPHB3_Y600_I601L] equal to or greater than 0.7?
Result: Not met

Request: Item KKKKQYKDKYL [CASK_Y708] with phosphorylation enrichment of 0.7 or above?
Result: Not met

Request: Has RFLRGYQQDAF [HLA-A_Y137_R138Q_YF] a recorded phosphorylation enrichment greater than or equal to 0.7?
Result: Met

Request: Check this sequence for phosphorylation enrichment at or above 0.7: FADIAYSYRHG [PAH_Y166_N167S]
Result: Met

====

# studyTarget: Fyn (UniProt P06241)
# Sequence (P06241 whole entry, looked up): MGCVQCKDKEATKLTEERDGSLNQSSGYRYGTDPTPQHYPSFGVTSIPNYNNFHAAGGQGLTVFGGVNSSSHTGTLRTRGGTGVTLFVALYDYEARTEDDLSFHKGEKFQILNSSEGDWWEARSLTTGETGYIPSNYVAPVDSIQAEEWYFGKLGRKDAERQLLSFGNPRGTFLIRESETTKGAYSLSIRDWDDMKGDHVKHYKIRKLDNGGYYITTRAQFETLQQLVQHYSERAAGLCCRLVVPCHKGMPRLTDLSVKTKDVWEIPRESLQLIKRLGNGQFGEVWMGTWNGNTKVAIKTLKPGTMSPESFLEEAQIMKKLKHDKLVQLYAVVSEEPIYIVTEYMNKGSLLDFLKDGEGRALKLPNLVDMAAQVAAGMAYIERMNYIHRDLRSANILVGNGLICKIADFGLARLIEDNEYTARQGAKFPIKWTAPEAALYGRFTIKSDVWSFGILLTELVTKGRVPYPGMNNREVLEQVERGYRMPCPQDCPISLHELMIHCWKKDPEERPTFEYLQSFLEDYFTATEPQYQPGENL
# measurementNotes: phosphorylation enrichment, bacterial display (enrichment ratio); higher = better substrate or ligand; peptides without Tyr show the background
Quick reference: phosphorylation enrichment of the listed items.

Record excerpt, results attached:
| seqText | studyTarget | phosphorylation enrichment |
| --- | --- | --- |
| EFISESCGEII [EZH2_Y641_Y641S] | Fyn (UniProt P06241) | 0.484 |
| PFIDSYEKDVA [PGM1_Y521_L516P_YF] | Fyn (UniProt P06241) | 0.656 |
| VERRVYAEDPF [PCCA_Y401_C398R_YF] | Fyn (UniProt P06241) | 0.554 |
| SEHLTYLEFKS [RASGRP1_Y215] | Fyn (UniProt P06241) | 6.61 |
| TTSQLYDAMPI [PDPK1_Y9_V12M] | Fyn (UniProt P06241) | 6.16 |
| PFADPYFDFEI [ZC3H18_Y371_YF] | Fyn (UniProt P06241) | 0.885 |
| FFLGAYDRFLP [SLC22A5_Y486_V481F_YF] | Fyn (UniProt P06241) | 1.99 |
| TSSGGYRRTPS [ABI1_Y333] | Fyn (UniProt P06241) | 0.433 |

Request: Hello, please tell me recorded phosphorylation enrichment for this one: AEDKPYAELWT [MPI_Y46_M51T]
Result: 1.3

Request: Return phosphorylation enrichment for the following sequence: FSGKAYADEEQ [CRIM1_Y826_R831Q]
Result: 0.522

Request: Given the sequence NNIDFYKNTTN [FGFR2_Y657_K659N_YF] , write its reported phosphorylation enrichment.
Result: 0.472

Request: # return recorded phosphorylation enrichment for input SVTCTYSPALS [TP53_Y126_N131S]
Result: 0.424

Request: For the sequence NYYDTYIKTCL [IQGAP2_Y1445] , report phosphorylation enrichment.
Result: 3.03

Request: Please give the documented phosphorylation enrichment of TSSAIYMNLAS [GATAD2B_Y317]
Result: 6.11

====

# studyTarget: Hck (UniProt P08631)
# Sequence (P08631 whole entry, looked up): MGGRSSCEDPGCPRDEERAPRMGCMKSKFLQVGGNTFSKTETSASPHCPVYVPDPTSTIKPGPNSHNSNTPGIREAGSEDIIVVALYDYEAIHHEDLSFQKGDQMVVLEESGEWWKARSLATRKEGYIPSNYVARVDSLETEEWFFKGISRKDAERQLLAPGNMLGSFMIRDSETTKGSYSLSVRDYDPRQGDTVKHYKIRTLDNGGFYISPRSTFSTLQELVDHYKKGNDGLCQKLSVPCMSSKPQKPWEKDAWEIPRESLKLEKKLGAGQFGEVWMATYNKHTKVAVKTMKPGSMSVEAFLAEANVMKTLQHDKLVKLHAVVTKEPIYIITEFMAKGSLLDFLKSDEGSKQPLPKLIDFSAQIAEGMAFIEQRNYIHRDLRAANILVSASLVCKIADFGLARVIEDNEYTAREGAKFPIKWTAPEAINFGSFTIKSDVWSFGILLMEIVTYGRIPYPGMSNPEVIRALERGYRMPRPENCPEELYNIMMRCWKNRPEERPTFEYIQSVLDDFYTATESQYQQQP
# measurementNotes: phosphorylation enrichment, bacterial display (enrichment ratio); higher = better substrate or ligand; peptides without Tyr show the background
measuredProperty: phosphorylation enrichment
Keep the answer to the number alone.

A selection of reference data follows.
| seqText | phosphorylation enrichment |
| --- | --- |
| STLEVYRCHPP [IL21R_Y317_S318R] | 0.552 |
| VKFLGYPPPEI [KDR_Y357_A352V_YF] | 0.369 |
| HFGCVYFGTLL [MET_Y1093_H1094Y_YF] | 0.763 |
| ENFSEYQEIAV [HEMGN_Y150] | 0.984 |
| STEVIYQPRRK [STK11_Y36] | 0.683 |

Note: attention shifts to another entry.
Request: Recall and state the measured phosphorylation enrichment for VFGVSYDEYRY [CFTR_Y512_I507V] .
Result: 0.712

====

# studyTarget: Fes (UniProt P07332)
# Sequence (P07332 whole entry, looked up): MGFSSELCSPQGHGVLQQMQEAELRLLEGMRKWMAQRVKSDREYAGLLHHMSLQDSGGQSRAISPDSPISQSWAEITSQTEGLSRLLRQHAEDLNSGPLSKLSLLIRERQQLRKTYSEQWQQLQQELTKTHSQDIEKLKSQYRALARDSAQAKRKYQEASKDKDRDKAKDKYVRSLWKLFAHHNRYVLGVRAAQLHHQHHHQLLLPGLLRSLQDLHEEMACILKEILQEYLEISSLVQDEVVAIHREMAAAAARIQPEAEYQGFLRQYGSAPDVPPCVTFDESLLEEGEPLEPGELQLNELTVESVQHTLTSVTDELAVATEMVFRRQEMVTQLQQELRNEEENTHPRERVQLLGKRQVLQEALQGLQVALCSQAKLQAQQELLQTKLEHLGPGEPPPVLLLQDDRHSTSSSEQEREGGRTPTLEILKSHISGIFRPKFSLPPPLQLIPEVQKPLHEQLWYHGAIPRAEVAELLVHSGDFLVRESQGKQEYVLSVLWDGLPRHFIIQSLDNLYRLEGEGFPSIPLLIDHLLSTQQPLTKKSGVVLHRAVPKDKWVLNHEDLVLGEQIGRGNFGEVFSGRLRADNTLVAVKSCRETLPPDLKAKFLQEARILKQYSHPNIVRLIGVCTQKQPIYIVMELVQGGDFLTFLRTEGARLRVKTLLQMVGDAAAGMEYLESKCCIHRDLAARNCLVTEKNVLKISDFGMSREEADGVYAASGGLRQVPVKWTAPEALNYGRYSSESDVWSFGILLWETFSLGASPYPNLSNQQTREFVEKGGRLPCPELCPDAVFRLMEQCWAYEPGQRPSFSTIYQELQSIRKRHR
# measurementNotes: phosphorylation enrichment, bacterial display (enrichment ratio); higher = better substrate or ligand; peptides without Tyr show the background
measuredProperty: phosphorylation enrichment
Form: value (number only, do not type unit).

// solved cases for phosphorylation enrichment follow
| seqText | phosphorylation enrichment |
| --- | --- |
| SVTCTHSPALN [TP53_Y126_Y126H] | 1.01 |
| EQQNMYRLKVL [ABCC6_Y372] | 0.706 |
| MSDVPYVMNRG [ACAT1_Y161_N158D] | 0.68 |
| VHNLDYYKMTT [FGFR3_Y647_K650M] | 0.608 |
| DCLASYLDKVR [KRT10_Y160_R156C] | 0.953 |
| LQEKSYIKGTS [LCTL_Y331] | 1.21 |

Request: Give phosphorylation enrichment for LSDGPYSSPFE [EPOR_Y485_N487S_YF]
Result: 0.84

Request: Return phosphorylation enrichment for the following sequence: RFLRGYQQDAF [HLA-A_Y137_R138Q_YF]
Result: 0.684

Request: Respond only with phosphorylation enrichment recorded for RRSQSYIPTSG [PLEKHA2_Y185]
Result: 0.709

Request: Name the recorded phosphorylation enrichment of the item QLQTTYPSSDN [MAX_Y115_N114T] in your answer.
Result: 0.752

Request: // Input: RTVPLYESPRK [DDB1_Y718] . Output its phosphorylation enrichment only.
Result: 1.77

Request: Recall and state the measured phosphorylation enrichment for IHYPPYTDWNQ [ALDH3B2_Y365] .
Result: 0.933

Request: Return phosphorylation enrichment (reported value) for this sequence: GKLIFYDLRGE [KARS1_Y145]
Result: 0.984

====

# studyTarget: Hck (UniProt P08631)
# measurementNotes: phosphorylation enrichment, bacterial display (enrichment ratio); higher = better substrate or ligand; peptides without Tyr show the background
measuredProperty: phosphorylation enrichment
# print the numeric value only

| seqText | studyTarget | measuredProperty | numericResult |
| --- | --- | --- | --- |
| CTTIHYNNMCN [TP53_Y234_Y236N] | Hck (UniProt P08631) | phosphorylation enrichment | 0.532 |

Request: Annotate the sequence HNELFYEAAEH [VANGL1_Y345_E347A_YF] with its measured phosphorylation enrichment.
Result: 1.51

Request: Identify phosphorylation enrichment associated with the sequence FEKNVYVDKNL [PTCHD3_Y688]
Result: 0.505

Request: Fill in reported phosphorylation enrichment for this entry: SSYPDYLAAVD [GLB1_Y154_D151Y]
Result: 0.515
